src = patent US7625948B2

# TARGET OR SYSTEM: Microsomal triglyceride transfer protein (MTP) from bovine liver (Bos taurus, UniProt P55156)
# Construct: from tissue; host or cells: bovine liver
# Sequence (P55156 12-887): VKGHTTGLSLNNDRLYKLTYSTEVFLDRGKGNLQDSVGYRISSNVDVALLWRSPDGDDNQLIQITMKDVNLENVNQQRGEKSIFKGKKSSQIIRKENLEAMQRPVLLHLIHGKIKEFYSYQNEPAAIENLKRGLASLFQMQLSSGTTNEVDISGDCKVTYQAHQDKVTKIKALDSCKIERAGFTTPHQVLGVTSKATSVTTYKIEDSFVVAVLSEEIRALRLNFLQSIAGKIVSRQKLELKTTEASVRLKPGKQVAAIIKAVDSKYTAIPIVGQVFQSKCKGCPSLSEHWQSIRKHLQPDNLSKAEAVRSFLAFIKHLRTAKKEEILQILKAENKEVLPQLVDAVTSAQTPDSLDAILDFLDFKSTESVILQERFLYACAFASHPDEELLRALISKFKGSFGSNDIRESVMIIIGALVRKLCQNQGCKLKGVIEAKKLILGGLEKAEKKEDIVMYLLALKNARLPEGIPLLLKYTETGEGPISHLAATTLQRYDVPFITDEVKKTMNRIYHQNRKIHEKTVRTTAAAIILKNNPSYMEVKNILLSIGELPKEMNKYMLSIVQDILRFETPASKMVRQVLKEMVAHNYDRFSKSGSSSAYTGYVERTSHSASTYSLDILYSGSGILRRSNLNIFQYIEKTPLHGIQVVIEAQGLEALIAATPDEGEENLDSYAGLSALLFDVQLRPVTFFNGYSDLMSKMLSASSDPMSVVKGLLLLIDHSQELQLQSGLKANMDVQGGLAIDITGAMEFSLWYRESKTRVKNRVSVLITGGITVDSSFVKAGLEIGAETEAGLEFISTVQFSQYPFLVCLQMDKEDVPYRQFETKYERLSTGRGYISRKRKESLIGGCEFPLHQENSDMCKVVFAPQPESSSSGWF
# Sequence (P05307 21-510 partner): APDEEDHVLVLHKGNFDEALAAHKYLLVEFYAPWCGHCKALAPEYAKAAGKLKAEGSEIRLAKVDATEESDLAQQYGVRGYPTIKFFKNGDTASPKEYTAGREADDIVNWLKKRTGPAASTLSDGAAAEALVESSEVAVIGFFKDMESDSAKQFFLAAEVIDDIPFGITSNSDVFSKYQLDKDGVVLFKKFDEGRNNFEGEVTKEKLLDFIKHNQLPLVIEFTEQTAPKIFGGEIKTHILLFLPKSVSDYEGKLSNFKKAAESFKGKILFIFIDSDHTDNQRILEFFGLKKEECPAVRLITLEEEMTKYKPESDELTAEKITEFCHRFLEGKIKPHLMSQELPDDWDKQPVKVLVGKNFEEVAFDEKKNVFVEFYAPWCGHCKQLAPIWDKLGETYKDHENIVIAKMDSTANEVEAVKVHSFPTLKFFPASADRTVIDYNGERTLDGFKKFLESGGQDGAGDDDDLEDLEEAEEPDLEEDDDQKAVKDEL
# ASSAY TEXT: Test Example 1: inhibition of interliposomal triglyceride (TG) transfer activity by MTP (also used for metabolites in Test Example 8)
# Assay type: biochemical
# CONDITIONS USED: MTP-mediated 14C-triolein transfer between liposomes, 37° C., one hour; read-out: Test Example 1 MTP inhibition IC50
MEASURED PROPERTY: IC50 (nM)

Below are worked cases with known answers.
# SMILES, UNIT ABBREVIATION, IC50
records = [
    ("CCOC(=O)C(COC(=O)Cc1ccc(NC(=O)c2ccccc2-c2ccc(C(F)(F)F)cc2)cc1)(C(=O)OCC)C1CCCC1", "nM", 82),
    ("CCNC(=O)C(CCOC(=O)Cc1cccc(NC(=O)c2ccccc2-c2ccc(C(F)(F)F)cc2)c1)(C(=O)NCC)c1ccccc1", "nM", 2.4),
    ("CCNC(=O)C(COC(=O)Cc1ccc(NC(=O)c2ccccc2-c2ccc(C(F)(F)F)cc2)c(OC(C)C)c1)(C(=O)NCC)c1ccccc1", "nM", 2.7),
    ("CCOC(=O)C(COC(=O)Cn1cnc2c(NC(=O)c3ccccc3-c3ccc(C(F)(F)F)cc3)cccc21)(C(=O)OCC)c1ccccc1", "nM", 20),
]

(I) CC(C)NC(=O)C(CCOC(=O)Cc1cccc(NC(=O)c2ccccc2-c2ccc(C(F)(F)F)cc2)c1)(C(=O)NC(C)C)c1ccccc1
(II) CCOC(=O)C(COC(=O)Cc1ccc(NC(=O)c2ccccc2-c2ccc(C(F)(F)F)cc2)c(C(F)(F)F)c1)(C(=O)OCC)c1ccccc1
(III) CCOC(=O)C(CCOC(=O)c1ccc(NC(=O)c2ccccc2-c2ccc(C(F)(F)F)cc2)cc1Cl)(C(=O)OCC)c1ccccc1
(IV) CC(C)CCNC(=O)C(COC(=O)Cc1ccc(NC(=O)c2ccccc2-c2ccc(C(F)(F)F)cc2)cc1)(C(=O)NCCC(C)C)c1ccccc1
(V) CCCCNC(=O)C(COC(=O)Cc1ccc(NC(=O)c2ccccc2-c2ccc(C(F)(F)F)cc2)cc1)(C(=O)NCCCC)c1ccccc1
[in] Please put the entries in order of rising IC50. List the labels according to the requested ordering.
[out] III, V, II, I, IV

(a) CC(C)NC(=O)C(COC(=O)Cc1ccc(NC(=O)c2ccccc2-c2ccc(C(F)(F)F)cc2)cc1)(C(=O)NC(C)C)c1ccccc1
(b) O=C(Cc1ccc(OC(=O)c2ccccc2-c2ccc(C(F)(F)F)cc2)cc1)OCC(C(=O)NCC(F)(F)F)(C(=O)NCC(F)(F)F)c1ccccc1
[in] Identify the entry with the larger IC50. Options: a and b // return label of chosen record
[out] b
(b: 35 nM, a: 5 nM)

(A) CCNC(=O)C(CCOC(=O)Cc1cccc(NC(=O)c2ccccc2-c2ccc(C(F)(F)F)cc2)c1C)(C(=O)NCC)c1ccccc1
(B) CCOC(=O)C(COC(=O)Cc1ccc(NC(=O)c2ccccc2-c2ccc(C(F)(F)F)cc2)cc1)(C(=O)OCC)c1ccccc1
(C) CCNC(=O)C(COC(=O)Cc1ccc(NC(=O)c2ccccc2-c2ccc(C(F)(F)F)cc2)c(C(=O)N(C)C)c1)(C(=O)NCC)c1ccccc1
(D) CCOC(=O)C(COC(=O)Cc1ccc(NC(=O)c2ccccc2-c2ccc(C(F)(F)F)cc2)c(C(=O)N2CCCCC2)c1)(C(=O)OCC)c1ccccc1
[in] Order field: IC50 | Direction: descending (largest first) List the labels according to the requested ordering.
[out] B, A, D, C

---

# Tested on: Syrian hamsters
# ASSAY TEXT: Test Example 3: olive oil-loading test (inhibition of fat absorption, plasma TG)
# Assay type: in vivo
# CONDITIONS USED: Mesocricetus auratus, po; 100 mg/kg p.o.; plasma TG 4 hours after olive oil; read-out: Test Example 3 Inhibition of fat absorption after olive oil-loading in Hamster Inhibition rate (%)
MEASURED PROPERTY: inhibition in vivo at 100 mg/kg (%)
State the answer as a number, implicitly in %.

# SMILES, inhibition in vivo at 100 mg/kg, %
measured = [
    ("CCOC(=O)C(COC(=O)Cc1ccc(NC(=O)c2ccccc2-c2ccc(C(F)(F)F)cc2)c(C)c1)(C(=O)OCC)c1ccccc1", 65),
    ("CCCNC(=O)C(COC(=O)Cc1ccc(NC(=O)c2ccccc2-c2ccc(C(F)(F)F)cc2)c(C)c1)(C(=O)NCCC)c1ccccc1", 54),
]

[in] Item "CCCNC(=O)C(CCOC(=O)Cc1cccc(NC(=O)c2ccccc2-c2ccc(C(F)(F)F)cc2)c1C)(C(=O)NCCC)c1ccccc1" has what recorded inhibition in vivo at 100 mg/kg?
[out] 64

---

# Test system: HepG2 cells
# ASSAY TEXT: Test Example 2: inhibition of apolipoprotein B secretion from HepG2 cells, ELISA (also used for metabolites in Test Example 8)
# Assay type: cell-based
# CONDITIONS USED: Homo sapiens, 24 hours, apo B in supernatant by ELISA, read-out: Test Example 2 Inhibition of apo B secretion IC50
pIC50: −log10 of the molar value.
MEASURED PROPERTY: pIC50

Below are worked cases with known answers.
# MOLECULE, TARGET OR SYSTEM, ASSAY RESULT
data = [
    ("CCNC(=O)C(COC(=O)Cc1ccc(NC(=O)c2ccccc2-c2ccc(C(F)(F)F)cc2)c(N(C)C)c1)(C(=O)NCC)c1ccccc1 [Example 4]", "HepG2 cells", 9.48),
    ("CCOC(=O)C(COC(=O)Cc1ccc(NC(=O)c2ccccc2-c2ccc(C(F)(F)F)cc2)c(OC(C)C)c1)(C(=O)OCC)c1ccccc1 [Example 3-9]", "HepG2 cells", 8.80),
    ("CCOC(=O)C(COC(=O)Cc1ccc(NC(=O)c2ccccc2-c2ccc(C(F)(F)F)cc2)cc1)(C(=O)OCC)C1CCCC1 [Example 1-14]", "HepG2 cells", 7.26),
    ("CCOC(=O)C(COC(=O)Cc1ccc(NC(=O)c2ccccc2-c2ccc(C(F)(F)F)cc2)c(N2CCOCC2)c1)(C(=O)OCC)c1ccccc1 [Example 4-7]", "HepG2 cells", 7.82),
    ("CCNC(=O)C(CCOC(=O)Cc1ccc(NC(=O)c2ccccc2-c2ccc(C(F)(F)F)cc2)cc1)(C(=O)NCC)c1ccccc1 [Example 1-48]", "HepG2 cells", 8.01),
]

(a) C=C(C)c1ccc(-c2ccccc2C(=O)Nc2ccc(CC(=O)OCC(C(=O)OCC)(C(=O)OCC)c3ccccc3)cc2C(=O)N(C)C)cc1 [Example 2-91]
(b) CCOC(=O)C(COC(=O)Cc1ccc(NC(=O)c2ccccc2-c2ccc(CC)cc2)c(C(=O)N(C)C)c1)(C(=O)OCC)c1ccccc1 [Example 2-90]
[in] Select one. Lower pIC50: a or b // return label of chosen record
[out] b

(I) CCOC(=O)C(CCOC(=O)Cc1cccc(NC(=O)c2ccccc2-c2ccc(C(F)(F)F)cc2)c1)(C(=O)OCC)c1ccccc1 [Example 5-3]
(II) CCOC(=O)C(COC(=O)Cc1ccc(NC(=O)c2ccccc2-c2ccc(C#N)cc2)c(C(=O)N(C)C)c1)(C(=O)OCC)c1ccccc1 [Example 2-46]
(III) COC(=O)C(COC(=O)Cc1ccc(NC(=O)c2ccccc2-c2ccc(C(F)(F)F)cc2)cc1)(C(=O)OC)c1ccccc1 [Example 1-13]
[in] Order field: pIC50 | Direction: descending (largest first) List the labels according to the requested ordering.
[out] II, I, III
(II: 8.54, I: 7.06, III: 6.77)

---

# System: HepG2 cells
# ASSAY TEXT: Test Example 2: inhibition of apolipoprotein B secretion from HepG2 cells, ELISA (also used for metabolites in Test Example 8)
# Format: cell-based
# CONDITIONS USED: Homo sapiens, 24 hours, apo B in supernatant by ELISA, read-out: Test Example 2 Inhibition of apo B secretion IC50
# Method: Inhibition of Apolipoprotein B Secretion from HepG2 Cells […] ELISA was carried out as follows. […] The reaction was stopped by addition of 2% oxalic acid (100 μL/well), and absorbency at 405 nm was measured. Concentration of apo B in the sample was calculated on the basis of a standard curve of the standard. Inhibition rate (%) was calculated from the assayed values in accordance with the following equation. […]
MEASURED PROPERTY: IC50 (nM)

# SMILES, IC50 / nM
rows = [
    ("CCNC(=O)C(CCOC(=O)c1ccc(OC(=O)c2ccccc2-c2ccc(C(F)(F)F)cc2)cc1)(C(=O)NCC)c1ccccc1", 920),
]

(A) CCNC(=O)C(COC(=O)Cc1ccc(NC(=O)c2ccccc2-c2ccc(C(F)(F)F)cc2)c(OC)c1)(C(=O)NCC)c1ccccc1
(B) CCOC(=O)C(COC(=O)Cc1ccc(NC(=O)c2ccccc2-c2ccc(C(F)(F)F)cc2)c(C(=O)N(C)C)c1)(C(=O)OCC)c1ccccc1Cl
[in] Select one. Lower IC50: A or B // return label of chosen record
[out] B
(B: 0.54 nM, A: 1 nM)
